Measured logP of individual entries

Smiles Structure	logP
CC=C(CCCC)C1(CCC)C(=O)NC(=O)NC1=O	2.65
C/C=C(\CC)C1(C)C(=O)NC(=O)NC1=O	1.15
C/C=C(\CC)C1(CC)C(=O)NC(=O)NC1=O	1.65
C=C(C)C1(CCC(C)C)C(=O)NC(=O)NC1=O	1.95
C=C(C)C1(CCCC)C(=O)NC(=O)NC1=O	1.65
CC=C(CCC)C1(C)C(=O)NC(=O)NC1=O	1.65
C/C=C(\CC)C1(CCC)C(=O)NC(=O)NC1=O	2.15
C/C=C(\C)C1(C)C(=O)NC(=O)NC1=O	0.65
CC/C=C(\C)C1(CC)C(=O)NC(=O)NC1=O	1.65
C=CCC1(/C(C)=C/C)C(=O)NC(=O)NC1=O	2.15
C/C=C(\C)C1(CCC)C(=O)NC(=O)NC1=O	1.65
CCCC=C(CC)C1(CC)C(=O)NC(=O)NC1=O	2.65
C=C(C)C1(CCCCC)C(=O)NC(=O)NC1=O	2.15
C/C=C(/C)C1(CC)C(=O)NC(=O)NC1=O	1.15
C=C(C)C1(C)C(=O)NC(=O)NC1=O	0.15
CC/C=C(\C)C1(C(C)C)C(=O)NC(=O)NC1=O	1.95
C=C(C)C1(CCC)C(=O)NC(=O)NC1=O	1.15
CC=C(CCCC)C1(C)C(=O)NC(=O)NC1=O	2.15
CC/C=C(\C)C1(C)C(=O)NC(=O)NC1=O	1.15
C/C=C(\CC)C1(C(C)C)C(=O)NC(=O)NC1=O	1.95
CC=C(C(C)C)C1(C)C(=O)NC(=O)NC1=O	1.45
C=C(C)C1(CC)C(=O)NC(=O)NC1=O	0.65
CC=C(CCC)C1(CC)C(=O)NC(=O)NC1=O	2.15
C=C(C)C1(CC(C)C)C(=O)NC(=O)NC1=O	1.45
CC/C=C(/C)C1(CCC)C(=O)NC(=O)NC1=O	2.15
